Data credit: patent US8133847B2

Test system: Amaranthus retroflexus (AMARE)
Experiment: Example B1 herbicidal action, post-emergence, 96-cell seed trays, climatic chamber
Format: in vivo
Conditions: Application post-emergence, 1000 mg/l spray equivalent to 1000 g/ha, evaluated after 9 days
Experimental: Seeds of a variety of test species were sown in sterilised standard soil in seed trays each having 96 cells. […] After 9 days until the test was evaluated (100=total damage to plant, 0=no damage to plant)
The reader will find reported damage to plant, Amaranthus retroflexus (AMARE) values listed item by item below.

Example entries and their recorded answers appear below.
# Compound, Test System, Meas Value
measured = [
    ("CCn1c(=O)c(-c2c(F)ccc(F)c2Cl)c(OC(=O)C(C)C)c2nccnc21", "Amaranthus retroflexus (AMARE)", 9),
    ("CC(CC(=O)Oc1c(-c2c(F)ccc(F)c2Cl)c(=O)n(C)c2nccnc12)CC(C)(C)C (centres unmarked)", "Amaranthus retroflexus (AMARE)", 5),
    ("CC(C)C(=O)Oc1c(-c2c(F)ccc(F)c2Cl)c(=O)n(C)c2ncc(Cl)nc12", "Amaranthus retroflexus (AMARE)", 0),
    ("Cn1c(=O)c(-c2c(Cl)ccc(Cl)c2Cl)c(OC(=O)C(C)(C)C)c2nccnc21", "Amaranthus retroflexus (AMARE)", 6),
    ("CCn1c(=O)c(-c2c(F)ccc(F)c2Cl)c(OC(=O)CC(C)(C)C)c2nccnc21", "Amaranthus retroflexus (AMARE)", 6),
    ("Cc1cc(C)c(-c2c(O)c3nccnc3[nH]c2=O)c(C)c1", "Amaranthus retroflexus (AMARE)", 7),
    ("CCC(=O)Oc1c(-c2ccc(F)cc2Cl)c(=O)n(C)c2nccnc12", "Amaranthus retroflexus (AMARE)", 8),
]

Documented damage to plant, Amaranthus retroflexus (AMARE) of CCn1c(=O)c(-c2ccc(Cl)cc2Cl)c(OC(C)=O)c2nccnc21 : 8

###

Test system: Amaranthus retroflexus (AMARE)
Test: Example B1 herbicidal action, post-emergence, 96-cell seed trays, climatic chamber
Assay type: in vivo
Conditions: Application post-emergence, 1000 mg/l spray equivalent to 1000 g/ha, evaluated after 9 days
The reader will find reported damage to plant, Amaranthus retroflexus (AMARE) values listed item by item below.
Answer as a number with no unit attached.

Example entries and their recorded answers appear below.
# Compound, Meas Value
rows = [
    ("CCCC(C)C(=O)Oc1c(-c2c(F)ccc(F)c2Cl)c(=O)n(C)c2nccnc12 (centres unmarked)", 6),
    ("O=c1[nH]c2ncc(Cl)nc2c(O)c1-c1c(Cl)cccc1Cl", 0),
    ("CCC(=O)Oc1c(-c2c(Cl)cccc2Cl)c(=O)n(CCOC)c2nccnc12", 2),
]

O=c1[nH]c2nccnc2c(O)c1-c1c(Cl)cccc1C(F)(F)F on Amaranthus retroflexus (AMARE) gives damage to plant, Amaranthus retroflexus (AMARE) = 5

Cc1ccc(Cl)c(-c2c(OC(=O)C(C)(C)C)c3nccnc3n(C)c2=O)c1F on Amaranthus retroflexus (AMARE) gives damage to plant, Amaranthus retroflexus (AMARE) = 0

CC(C)(C)C(=O)Oc1c(-c2ccccc2OC(F)(F)F)c(=O)[nH]c2nccnc12 on Amaranthus retroflexus (AMARE) gives damage to plant, Amaranthus retroflexus (AMARE) = 0

O=c1[nH]c2nccnc2c(O)c1-c1ccc2ccccc2c1 on Amaranthus retroflexus (AMARE) gives damage to plant, Amaranthus retroflexus (AMARE) = 2

Cn1c(=O)c(-c2ccccc2Cl)c(OC(=O)C(C)(C)C)c2nccnc21 on Amaranthus retroflexus (AMARE) gives damage to plant, Amaranthus retroflexus (AMARE) = 4

CC(=O)Oc1c(-c2ccccc2OC(F)(F)F)c(=O)n(Cc2ccccc2)c2nccnc12 on Amaranthus retroflexus (AMARE) gives damage to plant, Amaranthus retroflexus (AMARE) = 0

CCn1c(=O)c(-c2ccccc2OC)c(OC(=O)C(C)C)c2nccnc21 on Amaranthus retroflexus (AMARE) gives damage to plant, Amaranthus retroflexus (AMARE) = 0

C=CCn1c(=O)c(-c2c(Cl)cccc2Cl)c(OC(=O)CC)c2nccnc21 on Amaranthus retroflexus (AMARE) gives damage to plant, Amaranthus retroflexus (AMARE) = 8

CCC(=O)Oc1c(-c2c(Cl)cccc2Cl)c(=O)[nH]c2nccnc12 on Amaranthus retroflexus (AMARE) gives damage to plant, Amaranthus retroflexus (AMARE) = 8

CC#CCOC(=O)Oc1c(-c2c(Cl)cccc2Cl)c(=O)n(C)c2nccnc12 on Amaranthus retroflexus (AMARE) gives damage to plant, Amaranthus retroflexus (AMARE) = 4

CCn1c(=O)c(-c2ccc(Cl)cc2)c(OC(C)=O)c2nccnc21 on Amaranthus retroflexus (AMARE) gives damage to plant, Amaranthus retroflexus (AMARE) = 4

Cn1c(=O)c(-c2c(F)ccc(F)c2Cl)c(OC(=O)c2cccs2)c2nccnc21 on Amaranthus retroflexus (AMARE) gives damage to plant, Amaranthus retroflexus (AMARE) = 7

CC(C)Cn1c(=O)c(-c2c(F)ccc(F)c2Cl)c(OC(=O)C(C)(C)C)c2nccnc21 on Amaranthus retroflexus (AMARE) gives damage to plant, Amaranthus retroflexus (AMARE) = 0

CCn1c(=O)c(-c2ccc(Cl)c(Cl)c2)c(OC(C)=O)c2nccnc21 on Amaranthus retroflexus (AMARE) gives damage to plant, Amaranthus retroflexus (AMARE) = 0
